Data provenance is the DeepSol protein solubility set.

protocol-summary: soluble on expression in E. coli; label from the status in PepcDB or PDB records
property-label: soluble on expression in E. coli

ordered-residues: MIPMFKKKPLIGMVHLKPLPGSYHYNDNFDDIVDFAIKEAKKLEEAGFDAVMIENFGDAPFKKEADKITIASMAVIAKAIKEEVSLPLGINILRNDAIGAYSIAYVVKADFIRVNVLSGVAFTDQGIIEGKAYELAKLKKLLPSKIKVFADVHVKHAYHFIDFESSLLDTVERGLADAVIISGKRTGKEVDIEKLKLAKELVDVPVIVGSGTNYNNLRILWSYADGFIIGTWIKKDGKANNEIDIDRAKKIVNLANKLKMCLEHHHHHH
property-label: soluble on expression in E. coli
assay-value: soluble

ordered-residues: MGHHHHHHSHMERFVVTAPPARNRSKTALYVTPLDRVTEFGGELHEDGGKLFCTSCNVVLNHVRKSAISDHLKSKTHTKRKAEFEEQNVRKKQRPLTASLQCNSTAQTEKVSVIQDFVKMCLEANIPLEKADHPAVRAFLSRHVKNGGSIPKSDQLRRTYLPDGYENENQLLNSQDC
property-label: soluble on expression in E. coli
assay-value: soluble

====

protocol-summary: soluble on expression in E. coli; label from the status in PepcDB or PDB records

ordered-residues: MRAIIIGIGQCGTKIADIFSLVDFEALAINTSKSDLEYLKHIPPERRILVGESIVGGKGVNANPLLGREAMKRDLPMVMKKISSLVGYEDVDIFFLTFGFGGGTGAGGTPVLAEALKEEYPDSLVVAIGALPLKEEGIRPTINAAITIDKLSRIVDSIIAIDNNKLKESDEDISQAYEKINYAIVERIASLLALIDVPGEQTLDASDLKFVLRAMGSFATVGYAKADATKIKSLSRLIIRSFENEGLYLDVNLESALYGLVAIHGPPEVLKAKEIFDALSELSQRIRGKQIFRGFYPDPREREVEVVTLLSGIYESKSIENIVITAKRYAREFMKAKEEGEMKKRELLKGLPDFEDIYPGEVDEG
soluble on expression in E. coli: soluble
//
ordered-residues: MIVALGADLVEIARVERLLSRHGERALRRLFHEEEVAYALARQNPFPSLAARLAAKEAFQKCWPESLSWKEVWVGMEGKRPALRFAPRIEARMAEEGLFAHLSLSHERSHALAVVVLEARARGGG
soluble on expression in E. coli: soluble

====

protocol-summary: soluble on expression in E. coli; label from the status in PepcDB or PDB records

ordered-residues: MSLDRNLYEDTFVVFDVETTGLSAVYDTIIELAAVKIKGGEIVDRFESFANPHHALSQTTIDLTGITDDMVNDAPEVADVLKDFHTWMGNDILVAHNASFDMGFLNQGFQRIDYEKASNPVVDTLELARFLLPELRNHRLNTLCKHLDIELTQHHRAIYDAEATGYLLWKLVQRLVEKEISNHEGHHHHHH
soluble on expression in E. coli: soluble
--
ordered-residues: MSLWKNFNFVTKYFTKRRQRYITKTIAMNQQEFQLREITYQDIKDLLAIEREVYAGELPWTMSAFMAELGSKAPHLYLLAAINGKTVGFIGCRIQGTDAHITNVAVHTAYQGLGLGRSLIEETRIFAKKNRCETLSLEVRMSNVKAQRLYRKIGFVSQTVKKGYYDENNEDALEMIIDLKEEEGHHHHHH
soluble on expression in E. coli: soluble
--
ordered-residues: MGSSHHHHHHGSTKYALVGDVGGTNARLALCDIASGEISQAKTYSGLDYPSLEAVIRVYLEEHKVEVKDGCIAIACPITGDWVAMTNHTWAFSIAEMKKNLGFSHLEIINDFTAVSMAIPMLKKEHLIQFGGAEPVEGKPIAVYGAGTGLGVAHLVHVDKRWVSLPGEGGHVDFAPNSEEEAIILEILRAEIGHVSAERVLSGPGLVNLYRAIVKADNRLPENLKPKDITERALADSCTDCRRALSLFCVIMGRFGGNLALNLGTFGGVFIAGGIVPRFLEFFKASGFRAAFEDKGRFKEYVHDIPVYLIVHDNPGLLGSGAHLRQTLGHIL
soluble on expression in E. coli: soluble
